MIC by entry:
Tested on: L.micdadei
Method Notes: microbe, parasite or virus in culture
Format: cell-based
Experimental Context: pH 6; 48 hours; 37°C
Please give a number only; it is taken to be in µg/mL.

INSERT INTO results (compound, study_target, meas_value) VALUES
  ('c1ccc(-c2ccc(C(c3ccccc3)n3ccnc3)cc2)cc1 (stereo not shown) [bifonazole]', 'L.micdadei', 64),
  ('Clc1ccccc1C(c1ccccc1)(c1ccccc1)n1ccnc1 [clotrimazole]', 'L.micdadei', 16),
  ('Clc1ccc(COC(Cn2ccnc2)c2ccc(Cl)cc2Cl)c(Cl)c1 (stereo not shown) [miconazole]', 'L.micdadei', 128);

Let's switch to this compound now.
Ask: Return MIC for the following compound: Clc1ccccc1C(c1ccc(-c2ccccc2)cc1)n1ccnc1 (stereo not shown) [lombazole]
Reply: 64

###

MIC by entry:
Tested on: L.longbeachae gr. 2
Method Notes: microbe, parasite or virus in culture
Assay type: cell-based
Experimental Context: pH 6; 48 hours; 37°C
Please give a number only; it is taken to be in µg/mL.

Ask: State, for L.longbeachae gr. 2, measured MIC of the molecule listed here: Clc1ccccc1C(c1ccccc1)(c1ccccc1)n1ccnc1 [clotrimazole]
Reply: 16

Ask: State, for L.longbeachae gr. 2, measured MIC of the molecule listed here: Clc1ccc(COC(Cn2ccnc2)c2ccc(Cl)cc2Cl)c(Cl)c1 (stereo not shown) [miconazole]
Reply: 128

Ask: State, for L.longbeachae gr. 2, measured MIC of the molecule listed here: c1ccc(-c2ccc(C(c3ccccc3)n3ccnc3)cc2)cc1 (stereo not shown) [bifonazole]
Reply: 64

Ask: State, for L.longbeachae gr. 2, measured MIC of the molecule listed here: Clc1ccccc1C(c1ccc(-c2ccccc2)cc1)n1ccnc1 (stereo not shown) [lombazole]
Reply: 64

###

Tested on: L.dumoffii
Method Notes: microbe, parasite or virus in culture
Format: cell-based
Experimental Context: pH 6; 48 hours; 37°C
Recorded Endpoint: MIC (µg/mL)
Please give a number only; it is taken to be in µg/mL.

Would you please look over these solved cases?
INSERT INTO measurements (compound, meas_value) VALUES
  ('Clc1ccccc1C(c1ccccc1)(c1ccccc1)n1ccnc1', 16),
  ('Clc1ccc(COC(Cn2ccnc2)c2ccc(Cl)cc2Cl)c(Cl)c1 (stereo not shown)', 128),
  ('c1ccc(-c2ccc(C(c3ccccc3)n3ccnc3)cc2)cc1 (stereo not shown)', 64);

Let's switch to this compound now.
Ask: Return MIC for the following compound: Clc1ccccc1C(c1ccc(-c2ccccc2)cc1)n1ccnc1 (stereo not shown)
Reply: 64
